The values you see were collected from ChEMBL document CHEMBL4680197.

Target: Thioredoxin reductase 1, cytoplasmic (Rattus norvegicus)
Sequence (O89049 whole entry): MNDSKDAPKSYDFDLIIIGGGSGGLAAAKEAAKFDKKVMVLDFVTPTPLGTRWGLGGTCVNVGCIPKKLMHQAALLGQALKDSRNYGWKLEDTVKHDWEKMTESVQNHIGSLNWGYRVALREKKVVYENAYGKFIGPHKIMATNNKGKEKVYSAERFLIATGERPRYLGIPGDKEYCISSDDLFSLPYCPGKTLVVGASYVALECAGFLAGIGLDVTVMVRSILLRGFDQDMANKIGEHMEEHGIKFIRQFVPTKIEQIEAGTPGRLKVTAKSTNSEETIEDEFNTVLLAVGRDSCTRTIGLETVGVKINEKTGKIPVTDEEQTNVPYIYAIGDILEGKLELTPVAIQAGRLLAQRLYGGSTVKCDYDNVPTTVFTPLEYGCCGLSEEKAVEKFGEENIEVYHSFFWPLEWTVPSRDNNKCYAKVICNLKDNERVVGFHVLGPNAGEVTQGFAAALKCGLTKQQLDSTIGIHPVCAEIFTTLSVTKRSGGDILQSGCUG
Test: Inhibition of recombinant rat TrxR1 using DTNB as substrate preincubated for 15 mins followed by substrate addition and measured for 20 mins by colorimetry
pIC50: −log10 of the molar value.
# pIC50 >= 6 gives Criterion met, anything below gives Criterion not met

compound: Cc1cccc(C(C(=O)NC2CCCCC2)N(C)CCOC(=O)/C=C/C(=O)c2ccc(F)cc2)c1 (configuration not stated)
answer label: Criterion not met

compound: Cc1ccc(C(=O)/C=C/C(=O)OCCN(C)C(C(=O)NC2CCCCC2)c2ccc(F)cc2)cc1 (configuration not stated)
answer label: Criterion not met

compound: CCN(CCOC(=O)/C=C/C(=O)c1ccc(F)cc1)C(C(=O)NC(C)(C)C)c1cccc(C)c1 (configuration not stated)
answer label: Criterion not met

compound: CN(CCOC(=O)/C=C/C(=O)c1ccc(F)cc1)C(C(=O)NC(C)(C)C)c1ccc(F)c(F)c1 (configuration not stated)
answer label: Criterion met

compound: CN(CCOC(=O)/C=C/C(=O)c1ccc(F)cc1)C(C(=O)NC(C)(C)C)c1ccccc1F (configuration not stated)
answer label: Criterion not met

compound: Cc1ccc(C(C(=O)NC(C)(C)C)N(C)CCOC(=O)/C=C/C(=O)c2ccc(F)cc2)cc1 (configuration not stated)
answer label: Criterion met
